Where do the numbers come from? From patent US4900725A.

experimentalTarget: Progestogene receptor of rabbit uterus (Oryctolagus cuniculus)
Construct: the uterus is removed, weighed and homogenized at 0° C; from tissue; host or cells: uterus of estradiol-treated impuberal rabbits, 105,000 g supernatant (cytosol)
Sequence (P06186 whole entry): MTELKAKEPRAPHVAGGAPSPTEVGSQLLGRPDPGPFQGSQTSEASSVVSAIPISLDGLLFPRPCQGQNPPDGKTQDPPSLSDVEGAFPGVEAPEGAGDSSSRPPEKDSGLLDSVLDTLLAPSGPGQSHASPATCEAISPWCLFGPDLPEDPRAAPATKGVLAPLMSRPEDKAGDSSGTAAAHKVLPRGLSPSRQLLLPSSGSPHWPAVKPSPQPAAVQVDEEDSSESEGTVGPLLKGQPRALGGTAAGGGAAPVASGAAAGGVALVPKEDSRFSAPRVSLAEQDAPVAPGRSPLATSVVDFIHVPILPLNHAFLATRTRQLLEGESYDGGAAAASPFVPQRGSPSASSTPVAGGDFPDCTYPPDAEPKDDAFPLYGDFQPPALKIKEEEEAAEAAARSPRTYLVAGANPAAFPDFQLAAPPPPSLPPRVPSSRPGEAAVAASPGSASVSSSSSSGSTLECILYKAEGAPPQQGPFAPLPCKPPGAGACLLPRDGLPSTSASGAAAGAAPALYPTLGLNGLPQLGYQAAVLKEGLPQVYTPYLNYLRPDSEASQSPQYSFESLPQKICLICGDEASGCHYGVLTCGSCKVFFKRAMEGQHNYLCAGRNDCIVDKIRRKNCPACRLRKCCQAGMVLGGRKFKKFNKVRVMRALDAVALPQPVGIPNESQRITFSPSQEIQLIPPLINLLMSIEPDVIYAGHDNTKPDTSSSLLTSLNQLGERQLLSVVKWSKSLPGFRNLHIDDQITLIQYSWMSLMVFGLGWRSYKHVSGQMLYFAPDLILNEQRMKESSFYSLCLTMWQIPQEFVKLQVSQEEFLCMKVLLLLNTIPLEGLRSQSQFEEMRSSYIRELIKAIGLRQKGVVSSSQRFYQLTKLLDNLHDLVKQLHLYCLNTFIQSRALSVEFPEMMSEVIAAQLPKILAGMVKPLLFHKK
assayOverview: Progestogene receptor of rabbit uterus, relative bonding affinity (RBA)
Type: binding
conditionLabel: incubation 2 H at 0° C.; versus cold reference hormone, tritiated R
Relative bonding affinity (RBA), Progestogen, 2 H by entry:
readout: Relative bonding affinity (RBA), Progestogen, 2 H

                                   molecule  reported
0  CSc1ccc(C2CC3(C)C(CCC34CCCO4)C3CCC4=CC(=O)CCC4=C23)cc1 (stereo not shown) [Example 4]        78
1  CN(C)c1ccc(C2CC3(C)C(CCC34C=CCO4)C3CCC4=CC(=O)CCC4=C23)cc1 (stereo not shown) [Example 2]        23
2  CSc1ccc(C2CC3(C)C(CCC34C=CCO4)C3CCC4=CC(=O)CCC4=C23)cc1 (stereo not shown) [Example 3]        35
3  CN(C)c1ccc(C2CC3(C)C(CCC34CCCO4)C3CCC4=CC(=O)CCC4=C23)cc1 (stereo not shown) [Example 1]        62
